# SYSTEM TESTED: T1, recombinant ILT2 (human) (human, UniProt Q8NHL6 24-461)
# T1 construct: also called recombinant ILT2 peptide; ILT2 protein
# T1 sequence (Q8NHL6 24-461 limits assumed): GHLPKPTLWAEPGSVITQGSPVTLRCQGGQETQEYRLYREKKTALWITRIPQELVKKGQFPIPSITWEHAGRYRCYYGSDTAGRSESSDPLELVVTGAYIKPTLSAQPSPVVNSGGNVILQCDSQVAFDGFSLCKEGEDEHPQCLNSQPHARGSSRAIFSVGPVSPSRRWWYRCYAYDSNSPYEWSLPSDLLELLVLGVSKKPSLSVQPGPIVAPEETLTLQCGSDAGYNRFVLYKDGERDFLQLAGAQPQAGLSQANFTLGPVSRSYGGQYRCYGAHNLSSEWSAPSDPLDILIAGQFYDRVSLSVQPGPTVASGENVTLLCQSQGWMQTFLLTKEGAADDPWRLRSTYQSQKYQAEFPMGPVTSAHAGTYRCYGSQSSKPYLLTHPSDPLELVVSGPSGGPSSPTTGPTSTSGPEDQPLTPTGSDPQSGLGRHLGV
# PROTOCOL: SPR (Biacore T200), HEK EBNA supernatants on recombinant ILT2 peptide
# Protocol: During grafting of the 15G8 CDRs, five heavy chains and four kappa light chains were generated. These chains were designated VH1-5 and Vk1-4. By combining each heavy chain with each light chain twenty different resultant antibodies are possible. All twenty possible antibodies were transiently expressed in HEK EBNA cells, and the supernatants were tested for binding to recombinant ILT2 peptide using a Biacore T200. The chimeric 15G8 antibody was used as control.
QUANTITY NAME: kon
Units required after the number.

These recorded examples may help you get a feel for the data.
## Task What value of measured kon is listed for humanized 15G8 VH2/Vk1 (antibody, IgG4, V domains shown, Humanized IgG4 (S228P, L235E), kappa; tested as supernatant of transiently transfected HEK EBNA cells) VH: DVQLQGSGPGLVKPSETLSLTCSVTGYSITSGYYWNWIRQFPGKKLEWMGYISYDGSNNYNPSLKNRITISRDTSKNQFSLKLSSVTAADTATYYCAHGYSYYYAMDAWGQGTTVTVSS VL: DIQMTQSTSSLSASVGDRVTITCRTSQDISNYLNWYQQKPGKAVKLLISYTSRLHSGVPSRFSGSGSGTDYTLTISSLQQEDFATYFCQQGNTLPTFGQGTKLEIK ?
## Result 760000 M⁻¹ s⁻¹

## Task Next binder: humanized 15G8 VH2/Vk2 (antibody, IgG4, V domains shown, Humanized IgG4 (S228P, L235E), kappa; tested as supernatant of transiently transfected HEK EBNA cells) VH: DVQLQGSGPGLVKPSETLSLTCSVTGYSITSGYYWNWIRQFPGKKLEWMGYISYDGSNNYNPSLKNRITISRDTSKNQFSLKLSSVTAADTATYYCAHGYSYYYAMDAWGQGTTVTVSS VL: DIQMTQSPSSLSASVGDRVTITCRTSQDISNYLNWYQQKPGKAVKLLISYTSRLHSGVPSRFSGSGSGTDYTLTISSLQPEDFATYFCQQGNTLPTFGQGTKLEIK
## Result 752000 M⁻¹ s⁻¹

## Task Next binder: humanized 15G8 VH4/Vk1 (antibody, IgG4, V domains shown, Humanized IgG4 (S228P, L235E), kappa; tested as supernatant of transiently transfected HEK EBNA cells) VH: QVQLQGSGPGLVKPSETLSLTCSVTGYSITSGYYWNWIRQPPGKGLEWMGYISYDGSNNYNPSLKNRVTISRDTSKNQFSLKLSSVTAADTATYYCAHGYSYYYAMDAWGQGTTVTVSS VL: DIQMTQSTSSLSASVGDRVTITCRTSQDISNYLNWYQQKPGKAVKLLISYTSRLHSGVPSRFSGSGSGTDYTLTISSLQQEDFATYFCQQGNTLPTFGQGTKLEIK
## Result 915000 M⁻¹ s⁻¹

## Task Next binder: 15G8-23 (humanized 15G8, VH2/Vk3) (antibody, human IgG4 S228P, kappa, V domains shown, Humanized IgG4 (S228P, L235E), kappa) VH: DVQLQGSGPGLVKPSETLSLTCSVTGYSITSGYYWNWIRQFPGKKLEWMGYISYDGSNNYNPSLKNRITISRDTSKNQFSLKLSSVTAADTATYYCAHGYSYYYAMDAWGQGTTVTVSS VL: DIQMTQSPSSLSASVGDRVTITCRTSQDISNYLNWYQQKPGKAVKLLISYTSRLHSGVPSRFSGSGSGTDYTLTISSLQPEDFATYYCQQGNTLPTFGQGTKLEIKR
## Result 915000 M⁻¹ s⁻¹

## Task Next binder: 15G8-34 (humanized 15G8, VH3/Vk4) (antibody, IgG4, V domains shown, Humanized IgG4 (S228P, L235E), kappa) VH: DVQLQGSGPGLVKPSETLSLTCSVTGYSITSGYYWNWIRQPPGKGLEWMGYISYDGSNNYNPSLKNRITISRDTSKNQFSLKLSSVTAADTATYYCAHGYSYYYAMDAWGQGTTVTVSS VL: DIQMTQSPSSLSASVGDRVTITCRTSQDISNYLNWYQQKPGKAPKLLISYTSRLHSGVPSRFSGSGSGTDYTLTISSLQPEDFATYFCQQGNTLPTFGQGTKLEIK
## Result 661000 M⁻¹ s⁻¹

Okay, here is my list. What is kon for each of these?
1. 15G8-44 (humanized 15G8, VH4/Vk4) (antibody, IgG4, V domains shown, Humanized IgG4 (S228P, L235E), kappa) VH: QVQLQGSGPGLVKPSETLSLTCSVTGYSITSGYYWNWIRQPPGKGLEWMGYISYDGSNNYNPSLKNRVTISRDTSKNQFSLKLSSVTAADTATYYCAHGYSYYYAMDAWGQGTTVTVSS VL: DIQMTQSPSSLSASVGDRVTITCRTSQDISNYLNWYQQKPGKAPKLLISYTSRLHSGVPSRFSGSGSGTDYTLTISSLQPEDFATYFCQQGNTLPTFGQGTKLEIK
2. humanized 15G8 VH3/Vk3 (antibody, IgG4, V domains shown, Humanized IgG4 (S228P, L235E), kappa; tested as supernatant of transiently transfected HEK EBNA cells) VH: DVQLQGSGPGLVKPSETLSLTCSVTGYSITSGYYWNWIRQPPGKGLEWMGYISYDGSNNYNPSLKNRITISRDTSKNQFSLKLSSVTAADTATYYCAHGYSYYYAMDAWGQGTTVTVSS VL: DIQMTQSPSSLSASVGDRVTITCRTSQDISNYLNWYQQKPGKAVKLLISYTSRLHSGVPSRFSGSGSGTDYTLTISSLQPEDFATYYCQQGNTLPTFGQGTKLEIK
3. 15G8-53 (humanized 15G8, VH5/Vk3) (antibody, human IgG4 S228P, kappa, V domains shown, Humanized IgG4 (S228P, L235E), kappa) VH: QVQLQGSGPGLVKPSETLSLTCTVTGYSITSGYYWNWIRQPPGKGLEWIGYISYDGSNNYNPSLKNRVTISRDTSKNQFSLKLSSVTAADTATYYCAHGYSYYYAMDAWGQGTTVTVSS VL: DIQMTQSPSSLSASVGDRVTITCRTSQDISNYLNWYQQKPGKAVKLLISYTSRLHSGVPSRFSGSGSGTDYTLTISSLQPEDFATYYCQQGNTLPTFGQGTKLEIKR
4. humanized 15G8 VH1/Vk2 (antibody, IgG4, V domains shown, Humanized IgG4 (S228P, L235E), kappa; tested as supernatant of transiently transfected HEK EBNA cells) VH: DVQLQGSGPGLVKPSETLSLTCSVTGYSITSGYYWNWIRQFPGKKLEWMGYISYDGSNNYNPSLKNRITISRDTSKNQFSLKLNSVTAADTATYYCAHGYSYYYAMDAWGQGTSVTVSS VL: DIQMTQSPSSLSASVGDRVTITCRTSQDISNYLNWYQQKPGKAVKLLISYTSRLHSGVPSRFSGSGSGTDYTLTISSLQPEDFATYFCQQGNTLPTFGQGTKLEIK
5. 15G8-13 (humanized 15G8, VH1/Vk3, alanine variant A108) (antibody, human IgG4 S228P, kappa, V domains shown, Humanized IgG4 (S228P, L235E), kappa; also called 15G8 humanized antibody; BND-22) VH: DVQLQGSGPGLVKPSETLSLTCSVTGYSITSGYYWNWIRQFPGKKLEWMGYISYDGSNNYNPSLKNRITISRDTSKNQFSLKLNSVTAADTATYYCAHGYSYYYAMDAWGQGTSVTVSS VL: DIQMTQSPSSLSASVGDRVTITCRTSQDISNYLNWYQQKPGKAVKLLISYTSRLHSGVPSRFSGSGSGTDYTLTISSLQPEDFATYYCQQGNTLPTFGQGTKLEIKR

## Result
724000 M⁻¹ s⁻¹
677000 M⁻¹ s⁻¹
682000 M⁻¹ s⁻¹
769000 M⁻¹ s⁻¹
1.3e+06 M⁻¹ s⁻¹
